Measured target: Glycogen synthase kinase-3 beta (Homo sapiens, UniProt P49841)
Sequence (P49841 whole entry): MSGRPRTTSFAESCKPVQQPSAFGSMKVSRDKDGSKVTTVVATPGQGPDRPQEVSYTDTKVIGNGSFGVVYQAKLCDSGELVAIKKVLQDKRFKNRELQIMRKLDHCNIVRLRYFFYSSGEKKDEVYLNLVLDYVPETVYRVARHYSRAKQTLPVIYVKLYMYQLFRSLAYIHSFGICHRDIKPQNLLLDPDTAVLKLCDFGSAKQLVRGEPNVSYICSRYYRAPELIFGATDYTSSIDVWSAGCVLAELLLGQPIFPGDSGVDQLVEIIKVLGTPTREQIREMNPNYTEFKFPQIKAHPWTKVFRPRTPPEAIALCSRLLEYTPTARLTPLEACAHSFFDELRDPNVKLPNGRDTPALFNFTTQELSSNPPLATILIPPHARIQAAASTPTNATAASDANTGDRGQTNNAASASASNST
Experiment summary: concentration-response blocking of human GSK3B – biochemical, luminescence, cell-free homogeneous, retest, dose response (AID 434954)
Readings of EC50 for the listed compounds

[
  {
    "Compound": "COc1cccc(C(=O)CSc2nccn2C)c1",
    "EC50": "> 300 µM"
  }
]

Then there is this compound:
Look up EC50 of COc1ccc(C(=O)c2sc(Nc3ccccc3)nc2N)cc1 and report it.
1.04 µM

* * *

Measured target: Glycogen synthase kinase-3 beta (Homo sapiens, UniProt P49841)
Experiment summary: concentration-response blocking of human GSK3B – biochemical, luminescence, cell-free homogeneous, retest, dose response (AID 434954)
Readings of EC50 for the listed molecules

[
  {
    "Molecule": "O=C(NCc1cccs1)c1cc(C2CC2)on1",
    "Assay value": "> 300 µM"
  },
  {
    "Molecule": "O=C(Nc1ccccc1)Nc1ncc([N+](=O)[O-])s1",
    "Assay value": "27 µM"
  },
  {
    "Molecule": "Nc1ncnc(NC2CCS(=O)(=O)C2)c1[N+](=O)[O-] (configuration not stated)",
    "Assay value": "> 300 µM"
  },
  {
    "Molecule": "Cc1cc(-c2n[nH]c3c2C(c2cccc(O)c2)C(C#N)C(=N)O3)c(C)s1 (configuration not stated)",
    "Assay value": "25.4 µM"
  },
  {
    "Molecule": "CC(C)=CCc1c(O)ccc(C2COc3c(CC=C(C)C)c(O)cc(O)c3C2=O)c1O (configuration not stated)",
    "Assay value": "> 300 µM"
  }
]

Then there is this molecule:
Look up EC50 of COCCNc1nc(N)c([N+](=O)[O-])c(NCCO)n1 and report it.
28.5 µM
